// data source = ChEMBL document CHEMBL3351253

- TEST_SYSTEM: Peroxisome proliferator-activated receptor (Homo sapiens, UniProt P37231+Q07869+Q03181)
- Sequence (P37231 whole entry): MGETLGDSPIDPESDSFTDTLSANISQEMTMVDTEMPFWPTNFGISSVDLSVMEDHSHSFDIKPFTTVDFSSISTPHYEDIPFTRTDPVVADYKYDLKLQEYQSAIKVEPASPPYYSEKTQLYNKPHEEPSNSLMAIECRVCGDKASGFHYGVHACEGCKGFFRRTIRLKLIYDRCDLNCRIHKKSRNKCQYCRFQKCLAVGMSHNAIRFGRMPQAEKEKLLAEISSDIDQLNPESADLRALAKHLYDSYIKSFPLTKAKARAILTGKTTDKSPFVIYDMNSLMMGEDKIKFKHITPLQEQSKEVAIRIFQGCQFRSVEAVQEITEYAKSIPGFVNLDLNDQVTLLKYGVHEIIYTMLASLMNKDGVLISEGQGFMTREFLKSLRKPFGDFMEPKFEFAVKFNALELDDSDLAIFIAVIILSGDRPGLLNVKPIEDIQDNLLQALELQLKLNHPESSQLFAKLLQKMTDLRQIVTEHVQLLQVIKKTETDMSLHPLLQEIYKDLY
- Sequence (Q07869 whole entry): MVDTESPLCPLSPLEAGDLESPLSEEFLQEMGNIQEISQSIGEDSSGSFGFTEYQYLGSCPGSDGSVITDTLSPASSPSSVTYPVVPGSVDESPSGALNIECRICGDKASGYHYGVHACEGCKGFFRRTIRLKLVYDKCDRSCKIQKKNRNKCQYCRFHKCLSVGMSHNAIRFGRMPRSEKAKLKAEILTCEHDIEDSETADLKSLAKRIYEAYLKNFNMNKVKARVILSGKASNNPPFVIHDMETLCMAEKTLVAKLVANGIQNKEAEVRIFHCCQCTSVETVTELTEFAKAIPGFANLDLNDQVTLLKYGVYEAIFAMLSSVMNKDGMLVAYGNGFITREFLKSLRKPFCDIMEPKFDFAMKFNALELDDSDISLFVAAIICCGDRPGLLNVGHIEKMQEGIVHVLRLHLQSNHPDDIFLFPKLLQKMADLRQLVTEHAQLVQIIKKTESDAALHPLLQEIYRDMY
- Sequence (Q03181 whole entry): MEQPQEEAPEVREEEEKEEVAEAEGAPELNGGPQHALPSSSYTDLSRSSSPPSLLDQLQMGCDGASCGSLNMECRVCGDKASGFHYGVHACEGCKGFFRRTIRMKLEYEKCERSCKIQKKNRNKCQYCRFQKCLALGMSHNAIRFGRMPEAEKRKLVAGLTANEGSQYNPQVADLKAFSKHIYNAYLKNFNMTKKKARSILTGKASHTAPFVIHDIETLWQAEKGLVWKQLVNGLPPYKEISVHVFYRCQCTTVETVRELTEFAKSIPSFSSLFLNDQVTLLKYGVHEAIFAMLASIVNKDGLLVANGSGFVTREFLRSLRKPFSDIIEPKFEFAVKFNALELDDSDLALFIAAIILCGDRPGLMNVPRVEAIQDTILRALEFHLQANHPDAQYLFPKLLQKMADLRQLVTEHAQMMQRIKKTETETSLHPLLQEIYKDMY
- PROTOCOL_TEXT: Transactivation of PPAR transfected in human HepG2 cells after 20 hrs by PPAR-luciferase assay
- Type: cell-based
Quick list: EC50 per entry.

# STRUCTURE_SMILES_STRING, REPORTED_RELATION, EC50 / µM
rows = [
    ("CCCCCCCCCCCCCCCCCC(=O)O[C@H]1CC[C@@]2(C)C(=CC=C3[C@@H]4CC[C@H]([C@H](C)/C=C/[C@H](C)C(C)C)[C@@]4(C)CC[C@@H]32)C1", ">", 50),
    ("CCCCC/C=C\\C/C=C\\CCCCCCCC(=O)O[C@H]1CC[C@]2(C)[C@@]3(O)CC[C@]4(C)[C@@H]([C@H](C)/C=C/[C@H](C)C(C)C)CC[C@H]4C3=C[C@H](O)[C@@]2(O)C1", "=", 22.3),
    ("CCCCCCCCCCCCCCCC(=O)O[C@H]1CC[C@@]2(C)C(=CC=C3[C@@H]4CC[C@H]([C@H](C)/C=C/[C@H](C)C(C)C)[C@@]4(C)CC[C@@H]32)C1", ">", 50),
    ("CCCCC/C=C\\C/C=C\\CCCCCCCC(=O)O[C@H]1CC[C@]2(C)[C@H]3CC[C@]4(C)[C@@H]([C@H](C)/C=C/[C@H](C)C(C)C)CC[C@H]4C3=C[C@H](O)[C@@]2(O)C1", "=", 18.7),
    ("CCCCCCCC/C=C\\CCCCCCCC(=O)O[C@H]1C2=C3CC[C@H]([C@H](C)/C=C/[C@H](C)C(C)C)[C@@]3(C)CC[C@@H]2[C@@]2(C)CC[C@H](O)C[C@@]23O[C@@H]13", "=", 8.2),
]
